The measured values listed here are drawn from PubChem BioAssay.

# key: entry, value: composite z-score
- target or system: Torsin-1A-interacting protein 2 (Homo sapiens) (UniProt Q8NFQ8)
- Sequence (Q8NFQ8 whole entry, looked up): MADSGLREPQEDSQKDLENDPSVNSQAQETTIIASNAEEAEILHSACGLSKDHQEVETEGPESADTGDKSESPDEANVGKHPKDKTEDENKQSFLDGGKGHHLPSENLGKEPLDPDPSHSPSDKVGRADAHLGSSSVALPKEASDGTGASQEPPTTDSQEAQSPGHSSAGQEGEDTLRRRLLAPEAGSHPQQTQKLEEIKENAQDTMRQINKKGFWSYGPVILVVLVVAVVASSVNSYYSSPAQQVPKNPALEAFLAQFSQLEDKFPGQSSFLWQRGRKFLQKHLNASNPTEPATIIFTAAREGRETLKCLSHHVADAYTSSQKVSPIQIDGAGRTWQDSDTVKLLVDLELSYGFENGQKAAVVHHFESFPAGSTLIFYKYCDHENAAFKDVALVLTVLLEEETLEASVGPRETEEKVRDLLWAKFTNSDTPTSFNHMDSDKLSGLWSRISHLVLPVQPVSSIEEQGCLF
- protocol notes: small molecules binding lysate-expressed LULL1 – cell lysate, human LULL1 lysate, 635/667 nm fluorescence, primary screen (AID 1092);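 also: probe is lysate of COS7 cells overexpressing human LULL1; score merges per-feature 667 nm fluorescence with signal-to-noise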
- condition description: small-molecule microarray, hLULL1 lysate binding, 635 nm fluorescence; higher = more signal
parameter measured: composite z-score

# compound, target or system, parameter measured, endpoint value
records = [
    ("C#Cc1cc2ccccc2oc1=O", "Torsin-1A-interacting protein 2 (Homo sapiens) (UniProt Q8NFQ8)", "composite z-score", 0.969),
    ("CCCC1(C(=O)OC)C=C2C(=C(C)C(=O)C2C)CN1 (configuration not stated)", "Torsin-1A-interacting protein 2 (Homo sapiens) (UniProt Q8NFQ8)", "composite z-score", 0.941),
    ("COc1ccc([Si](C)(C)[C@@H]2[C@@H](CC(=O)N(CCO)Cc3ccccc3)O[C@]3(C(=O)N(Cc4cccc(N5CCCCC5=O)c4)c4ccccc43)[C@H]2C)cc1", "Torsin-1A-interacting protein 2 (Homo sapiens) (UniProt Q8NFQ8)", "composite z-score", 2.38),
    ("CC(C)C[C@@H]1NC(=O)[C@@H]2C[C@H](C(=O)NCCCCCCN)[C@H](c3cccc(OCCO)c3)N2C1=O", "Torsin-1A-interacting protein 2 (Homo sapiens) (UniProt Q8NFQ8)", "composite z-score", 2.98),
    ("COc1ccc(CCNC(=O)[C@@H]2c3ccccc3C(=O)N(C3CCCCC3)[C@H]2c2ccc(CO)cc2)cc1", "Torsin-1A-interacting protein 2 (Homo sapiens) (UniProt Q8NFQ8)", "composite z-score", 3.07),
    ("CC(c1ccccc1)C(O)C1C=CC2C(=O)N(C)C(=O)C2N1Nc1ccccc1 (configuration not stated)", "Torsin-1A-interacting protein 2 (Homo sapiens) (UniProt Q8NFQ8)", "composite z-score", 2.99),
    ("C#CCN([C@@H](Cc1ccccc1)C(=O)OC)[C@@H](/C=C/C1CC1)[C@H](O)Cc1ccccc1", "Torsin-1A-interacting protein 2 (Homo sapiens) (UniProt Q8NFQ8)", "composite z-score", 0.209),
    ("O=C1CS(=O)(=O)C(c2cccc([N+](=O)[O-])c2)N1c1ccccc1 (configuration not stated)", "Torsin-1A-interacting protein 2 (Homo sapiens) (UniProt Q8NFQ8)", "composite z-score", 1.85),
    ("COc1cc2c(cc1O)C=[N+](Cc1sc3ccccc3c1Cl)CC2", "Torsin-1A-interacting protein 2 (Homo sapiens) (UniProt Q8NFQ8)", "composite z-score", -0.0121),
    ("CC(C)[Si]1(C(C)C)OCc2cc(-c3ccc(-c4ccc(Cl)c(Cl)c4)o3)nc(-c3ccccc3)c21", "Torsin-1A-interacting protein 2 (Homo sapiens) (UniProt Q8NFQ8)", "composite z-score", -1.75),
    ("CN(C)C(=O)[C@]1(Cc2ccccc2CN=[N+]=[N-])N=C(c2ccc(OCCCO)cc2)O[C@@H]1c1ccccc1", "Torsin-1A-interacting protein 2 (Homo sapiens) (UniProt Q8NFQ8)", "composite z-score", 3.29),
    ("C=CC[C@@H](OC(=O)Nc1ccc(SC)cc1)c1ccc(O)c(F)c1", "Torsin-1A-interacting protein 2 (Homo sapiens) (UniProt Q8NFQ8)", "composite z-score", 0.724),
]
